Data provenance: patent USRE36481E

So I've got a bunch of compounds here, and I need their Relative Potency values.
system: HMG-CoA reductase; experiment: HMG-CoA Reductase Inhibition Assay (in vitro, relative to compactin); type: biochemical; details: IC50 compared with compactin determined simultaneously, compactin assigned 100; tested as sodium salt of dihydroxy acid form; solubilized rat liver microsomal enzyme
Please respond with just the number, no unit label.

Challenge: Suppose we examine the compound CCC(C)(C)C(=O)O[C@H]1C[C@@H](C(=O)O)C=C2C=C[C@H](C)[C@H](CC[C@@H](O)C[C@@H](O)CC(=O)O)[C@H]21 [db -- db R CO2 H 1,1-dimethylpropyl] ; what Relative Potency value has been reported?
Response given: 94

Challenge: Suppose we examine the compound CCC(C)(C)C(=O)OC[C@H]1C[C@@H]2CC[C@H](C)[C@H](CC[C@@H](O)C[C@@H](O)CC(=O)O)[C@H]2[C@@H](OC(=O)C(C)(C)CC)C1 ; what Relative Potency value has been reported?
Response given: 100

Challenge: Suppose we examine the compound CCC(C)(C)C(=O)O[C@H]1C[C@@H](C(C)O)C[C@@H]2CC[C@H](C)[C@H](CC[C@@H](O)C[C@@H](O)CC(=O)O)[C@H]21 (single isomer, unassigned) [-- -- -- S CHOHCH3 (ISOMER A) 1,1-dimethylpropyl] ; what Relative Potency value has been reported?
Response given: 131

Challenge: Suppose we examine the compound CCC(C)C(=O)O[C@H]1C[C@H](C(=O)O)C=C2C=C[C@H](C)[C@H](CC[C@@H](O)C[C@@H](O)CC(=O)O)[C@H]21 (some centres unmarked) [db -- db S CO2 H sec-butyl] ; what Relative Potency value has been reported?
Response given: 26

Challenge: Suppose we examine the compound CCC(C)(C)C(=O)O[C@H]1C[C@H](C(C)O)C[C@@H]2CC[C@H](C)[C@H](CC[C@@H](O)C[C@@H](O)CC(=O)O)[C@H]21 (single isomer, unassigned) [-- -- -- R CHOHCH3 (ISOMER B) 1,1-dimethylpropyl] ; what Relative Potency value has been reported?
Response given: 104

---

tested on: HMG-CoA reductase; assay: HMG-CoA Reductase Inhibition Assay (in vitro, relative to compactin); type: biochemical; settings: IC50 compared with compactin determined simultaneously, compactin assigned 100; tested as sodium salt of dihydroxy acid form; solubilized rat liver microsomal enzyme
So I've got a bunch of molecules here, and I need their Relative Potency values.
Please respond with just the number, no unit label.

Challenge: Suppose we examine the molecule CCC(C)(C)C(=O)O[C@H]1C[C@H](C(=O)N(C)C)C=C2C=C[C@H](C)[C@H](CC[C@@H](O)C[C@@H](O)CC(=O)O)[C@H]21 ; what Relative Potency value has been reported?
Response given: 82

Challenge: Suppose we examine the molecule CCC(C)(C)C(=O)O[C@H]1C[C@@H](C(=O)N(C(=O)NC2CCCCC2)C2CCCCC2)C[C@@H]2CC[C@H](C)[C@H](CC[C@@H](O)C[C@@H](O)CC(=O)O)[C@H]21 ; what Relative Potency value has been reported?
Response given: 100

Challenge: Suppose we examine the molecule CCC(C)(C)C(=O)O[C@H]1C[C@H](COC(=O)Nc2ccccc2)C=C2C=C[C@H](C)[C@H](CC[C@@H](O)C[C@@H](O)CC(=O)O)[C@H]21 ; what Relative Potency value has been reported?
Response given: 726

Challenge: Suppose we examine the molecule CCN(CC)C(=O)[C@@H]1C=C2C=C[C@H](C)[C@H](CC[C@@H](O)C[C@@H](O)CC(=O)O)[C@H]2[C@@H](OC(=O)C(C)(C)CC)C1 ; what Relative Potency value has been reported?
Response given: 65

Challenge: Suppose we examine the molecule CCC(C)(C)C(=O)O[C@H]1C[C@@H](C(=O)O)C[C@@H]2CC[C@H](C)[C@H](CC[C@@H](O)C[C@@H](O)CC(=O)O)[C@H]21 ; what Relative Potency value has been reported?
Response given: 79

Challenge: Suppose we examine the molecule CCC(C)(C)C(=O)O[C@H]1C[C@@H](C(=O)N(C)C)C[C@@H]2CC[C@H](C)[C@H](CC[C@@H](O)C[C@@H](O)CC(=O)O)[C@H]21 ; what Relative Potency value has been reported?
Response given: 75

Challenge: Suppose we examine the molecule CCC(C)(C)C(=O)O[C@H]1C[C@H](CO)C=C2C=C[C@H](C)[C@H](CC[C@@H](O)C[C@@H](O)CC(=O)O)[C@H]21 ; what Relative Potency value has been reported?
Response given: 189

Challenge: Suppose we examine the molecule CCC(C)(C)C(=O)O[C@H]1C[C@H](C(=O)O)C=C2C=C[C@H](C)[C@H](CC[C@@H](O)C[C@@H](O)CC(=O)O)[C@H]21 ; what Relative Potency value has been reported?
Response given: 99

Challenge: Suppose we examine the molecule CCC(C)C(=O)O[C@H]1C[C@@H](CO)C=C2C=C[C@H](C)[C@H](CC[C@@H](O)C[C@@H](O)CC(=O)O)[C@H]21 (some centres unmarked) ; what Relative Potency value has been reported?
Response given: 47

Challenge: Suppose we examine the molecule CCC(C)(C)C(=O)O[C@H]1C[C@@H](CO)C[C@@H]2CC[C@H](C)[C@H](CC[C@@H](O)C[C@@H](O)CC(=O)O)[C@H]21 ; what Relative Potency value has been reported?
Response given: 86

Challenge: Suppose we examine the molecule CCOC(=O)[C@H]1C[C@@H]2CC[C@H](C)[C@H](CC[C@@H](O)C[C@@H](O)CC(=O)O)[C@H]2[C@@H](OC(=O)C(C)(C)CC)C1 ; what Relative Potency value has been reported?
Response given: 125

Challenge: Suppose we examine the molecule CCC(C)(C)C(=O)O[C@H]1C[C@@H](C(N)=O)C[C@@H]2CC[C@H](C)[C@H](CC[C@@H](O)C[C@@H](O)CC(=O)O)[C@H]21 ; what Relative Potency value has been reported?
Response given: 107

Challenge: Suppose we examine the molecule CCC(C)(C)C(=O)O[C@H]1C[C@@H](C(O)c2ccccc2)C[C@@H]2CC[C@H](C)[C@H](CC[C@@H](O)C[C@@H](O)CC(=O)O)[C@H]21 (single isomer, unassigned) ; what Relative Potency value has been reported?
Response given: 220

Challenge: Suppose we examine the molecule CCC(C)(C)C(=O)O[C@H]1C[C@H](C(C)O)C[C@@H]2CC[C@H](C)[C@H](CC[C@@H](O)C[C@@H](O)CC(=O)O)[C@H]21 (single isomer, unassigned) [-- -- -- R CHOHCH3 (ISOMER A) 1,1-dimethylpropyl] ; what Relative Potency value has been reported?
Response given: 111

---

tested on: HMG-CoA reductase; test: HMG-CoA Reductase Inhibition Assay (in vitro, relative to compactin); format: biochemical; settings: IC50 compared with compactin determined simultaneously, compactin assigned 100; tested as sodium salt of dihydroxy acid form; solubilized rat liver microsomal enzyme
observable: Relative Potency
Please respond with just the number, no unit label.

Challenge: Suppose we examine the compound C[C@H]1CC[C@H]2C[C@H](CO)C[C@H](OC(=O)C3CCCCC3)[C@@H]2[C@H]1CC[C@@H](O)C[C@@H](O)CC(=O)O ; what Relative Potency value has been reported?
Response given: 33

Challenge: Suppose we examine the compound CCC(C)(C)C(=O)OC[C@H]1C=C2CC[C@H](C)[C@H](CC[C@@H](O)C[C@@H](O)CC(=O)O)[C@H]2[C@@H](OC(=O)C(C)(C)CC)C1 ; what Relative Potency value has been reported?
Response given: 33

Challenge: Suppose we examine the compound CCC(C)(C)C(=O)O[C@H]1C[C@@H](CO)C=C2CC[C@H](C)[C@H](CC[C@@H](O)C[C@@H](O)CC(=O)O)[C@H]21 ; what Relative Potency value has been reported?
Response given: 213

Challenge: Suppose we examine the compound CCC(C)(C)C(=O)O[C@H]1C[C@@H](C(C)O)C[C@@H]2CC[C@H](C)[C@H](CC[C@@H](O)C[C@@H](O)CC(=O)O)[C@H]21 (single isomer, unassigned) [-- -- -- S CHOHCH3 (ISOMER B) 1,1-dimethylpropyl] ; what Relative Potency value has been reported?
Response given: 113

Challenge: Suppose we examine the compound CCC(C)(C)C(=O)O[C@H]1C[C@@H](C(=O)OC(C)C)C[C@@H]2CC[C@H](C)[C@H](CC[C@@H](O)C[C@@H](O)CC(=O)O)[C@H]21 ; what Relative Potency value has been reported?
Response given: 80
